# tested.system: T1, IL-2 receptor βγ complex (human, UniProt P14784 27-551; P31785 23-369)
# T1 sequence (looked up) 1: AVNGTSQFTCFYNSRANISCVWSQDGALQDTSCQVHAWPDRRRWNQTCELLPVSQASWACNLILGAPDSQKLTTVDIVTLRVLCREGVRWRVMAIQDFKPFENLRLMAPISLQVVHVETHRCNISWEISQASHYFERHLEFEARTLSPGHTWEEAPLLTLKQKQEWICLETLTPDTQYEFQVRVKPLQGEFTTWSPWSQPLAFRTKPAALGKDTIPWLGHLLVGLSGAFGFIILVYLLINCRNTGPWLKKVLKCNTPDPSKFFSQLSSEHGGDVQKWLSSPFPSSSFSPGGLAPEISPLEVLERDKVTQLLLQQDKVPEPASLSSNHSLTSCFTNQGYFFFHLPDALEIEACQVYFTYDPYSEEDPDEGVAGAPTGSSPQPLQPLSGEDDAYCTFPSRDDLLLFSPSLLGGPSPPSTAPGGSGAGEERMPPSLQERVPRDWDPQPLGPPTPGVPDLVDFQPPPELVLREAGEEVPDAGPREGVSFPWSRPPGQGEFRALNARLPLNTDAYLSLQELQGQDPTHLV
# T1 sequence (looked up) 2: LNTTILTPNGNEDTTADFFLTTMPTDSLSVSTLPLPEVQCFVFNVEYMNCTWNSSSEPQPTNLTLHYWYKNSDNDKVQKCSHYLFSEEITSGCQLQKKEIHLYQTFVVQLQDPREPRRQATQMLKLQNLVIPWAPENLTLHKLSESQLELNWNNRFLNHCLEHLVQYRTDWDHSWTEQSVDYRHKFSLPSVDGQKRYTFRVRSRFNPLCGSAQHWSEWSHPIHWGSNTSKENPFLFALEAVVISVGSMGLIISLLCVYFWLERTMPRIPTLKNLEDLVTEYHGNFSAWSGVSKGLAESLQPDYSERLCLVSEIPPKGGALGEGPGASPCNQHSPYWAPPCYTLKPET
# test.details: cell-based or functional assay
Bridges are numbered along the chain shown (N, C = ends). Primed or numbered codes have the meaning given here. [ ]: non-standard residue; d: D form. Ygp(4) = Tyr with amino-capped PEG8 (O-(8x polyethylene glycol-amino)-tyrosine); Yn3(4) = Tyr with azide-capped PEG9 (O-(9x polyethylene glycol-azido)-tyrosine); Ygp = O-(8x polyethylene glycol-amino)-tyrosine (Tyr, amino-capped PEG8); Yn3 = O-(9x polyethylene glycol-azido)-tyrosine (Tyr, azide-capped PEG9); hSer = N[C@@H](CCO)C(=O)O; Nle = CCCC[C@H](N)C(=O)O
Provide the reported Average EC50, pSTAT5 Assay (T cells) of each item.
Note: unit nM is implicit; provide only the numeric part.

Find the recorded Average EC50, pSTAT5 Assay (T cells) belonging to CMP-165, MMP2 cleaved molecule (ligand, ends and bridges not checked; also: MMP2 cleaved, cleavage site and linker fragments on N-terminus and Lys23 side chain not given here) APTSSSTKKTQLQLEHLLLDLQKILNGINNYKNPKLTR[Nle]L[hSer][Yn3]KF[Ygp][Nle]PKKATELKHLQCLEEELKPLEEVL[hSer]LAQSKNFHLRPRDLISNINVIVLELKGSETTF[hSer]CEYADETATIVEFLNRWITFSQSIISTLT and report it. 1.42

Look up Average EC50, pSTAT5 Assay (T cells): CMP-303 (ligand, bridge N-29; not fully specified (N-terminus, bridges); ends not checked) PLGLAGAPTSSSTKKTQLQLEHLLLDLQEILNGINNYKNPKLTR[Nle]L[hSer][Yn3(4)]KF[Ygp(4)][Nle]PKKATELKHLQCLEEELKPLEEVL[hSer]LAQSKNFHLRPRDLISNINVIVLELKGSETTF[hSer]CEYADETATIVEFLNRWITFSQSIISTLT 97.9
